Assignment: determine reported IC50 for the given compounds.
assayed target: human CXCR3 (N-delta 4) (Homo sapiens)
Construct: CD8 leader (N); Flag tag; expressed in transfected cells; membrane preparation
experiment notes: Human CXCR3 (N-delta 4) scintillation proximity assay (SPA), [125I] IP-10 binding to Ba/F3-hCXCR3 membranes
condition parameters: IC50 rating; [125I] IP-10 displacement, human CXCR3; read-out: IC50

Worked cases, answers included:
compound=CC[C@H]1CN(c2ncc(NS(C)(=O)=O)cc2Cl)CCN1C1CCN(Cc2ccc(Cl)cc2NS(C)(=O)=O)CC1 value="> 100 nM"
compound=CC[C@H]1CN(c2ncc(NC3=NS(=O)(=O)N=C3N)cc2Cl)CCN1C1CCN(Cc2ccc(Cl)cc2-c2ncon2)CC1 value="> 100 nM"
compound=COc1ccc(CN2CCC(N3C[C@H](C)N(c4ncc(Nc5c(NCC(F)(F)F)c(=O)c5=O)cc4Cl)C[C@H]3C)CC2)cc1 value="> 100 nM"
compound=CC[C@H]1CN(c2ncc(NC(=N)N)cc2Cl)CCN1C1CCN(Cc2ccc(Cl)cc2F)CC1 value="> 100 nM"
compound=CC[C@H]1CN(c2ncc(-n3ccnc3)cc2Cl)CCN1C1CCN([C@H](C(=O)OC)c2ccc(Cl)cc2)CC1 value="> 100 nM"

Hi! Can you tell me IC50 for each of these compounds?
1. CC[C@H]1CN(c2ncc(NS(C)(=O)=O)cc2Cl)CCN1C1CCN(C(=O)c2ccc(Br)s2)CC1
2. CC[C@H]1CN(c2ncc(Nc3c(NC4CC4)c(=O)c3=O)cc2Cl)CCN1C1CCN([C@@H](C(=O)NC)c2ccc(Cl)cc2)CC1

1. > 100 nM
2. < 25 nM

Hi! Can you tell me IC50 for each of these compounds?
1. CC[C@H]1CN(c2ncc(Nc3c(NC4CC4)c(=O)c3=O)cc2Cl)CCN1C1CCN([C@H](C(=O)NC)c2ccc(Cl)cc2)CC1
2. C[C@@H]1CN(c2ncc(Nc3c(NCC(F)(F)F)c(=O)c3=O)cc2Cl)[C@@H](C)CN1C1CCN(Cc2ccc(Cl)c(Cl)c2)CC1
3. CC[C@H]1CN(c2ncc(NS(C)(=O)=O)cc2Cl)CCN1C1CCN(Cc2ccc(Br)cc2)CC1
4. C[C@@H]1CN(c2ncc(Nc3c(NCC(F)(F)F)c(=O)c3=O)cc2Cl)[C@@H](C)CN1C1CCN(C2CCCC(C(F)(F)F)C2)CC1 (stereo partly drawn) [Compound 172]
5. Cc1cc(Nc2c(NCC(F)(F)F)c(=O)c2=O)cnc1N1C[C@@H](C)N(C2CCN(C(=O)C3Cc4ccccc4C3)CC2)C[C@@H]1C
6. C[C@@H]1CN(c2ncc(Nc3c(NCC(F)(F)F)c(=O)c3=O)cc2Cl)[C@@H](C)CN1C1CCN(CC(c2ccccc2)c2ccccc2)CC1
7. CC[C@H]1CN(c2ncc(NC3=NS(=O)(=O)N=C3NC(C)(C)C)cc2Cl)CCN1C1CCN(Cc2ccc(Cl)cc2F)CC1

["> 100 nM", "> 100 nM", "< 25 nM", "> 100 nM", "> 100 nM", "> 100 nM", "25 to 100 nM"]

Hi! Can you tell me IC50 for each of these compounds?
1. CC[C@H]1CN(c2ncc(N(Cc3ccc(C#N)cc3)c3c(C(C)C)c(=O)c3=O)cc2Cl)CCN1C1CCN(Cc2ccc(C#N)cc2)CC1
2. CC[C@H]1CN(c2ncc(Nc3c(NC4CC4)c(=O)c3=O)cc2Cl)CCN1C1CCN(C(=O)c2ccc(Cl)cc2)CC1
3. CC[C@H]1CN(c2ncc(NS(C)(=O)=O)cc2Cl)CCN1C1CCN(Cc2ccc(C)cc2)CC1
4. CC[C@H]1CN(c2ncc(-n3cn[nH]c3=O)cc2Cl)CCN1C1CCN(Cc2ccc(Cl)cc2F)CC1
5. CC[C@H]1CN(c2ncc(NS(C)(=O)=O)cc2Cl)CCN1C1CCN(Cc2ccc(Cl)cc2C(=O)OC)CC1
6. CC[C@H]1CN(c2ncc(NC(=O)NN)cc2Cl)CCN1C1CCN(Cc2ccc(Cl)cc2F)CC1
7. CCC(C)CN1CCC(N2C[C@H](C)N(c3ncc(Nc4c(NCC(F)(F)F)c(=O)c4=O)cc3Cl)C[C@H]2C)CC1 (stereo partly drawn) [Compound 132]
8. CCC(C)CN1CCC(N2C[C@H](C)N(c3ncc(Nc4c(NCC(F)(F)F)c(=O)c4=O)cc3Cl)C[C@H]2C)CC1 (stereo partly drawn) [Compound 170]

1: > 100 nM; 2: < 25 nM; 3: < 25 nM; 4: < 25 nM; 5: 25 to 100 nM; 6: 25 to 100 nM; 7: > 100 nM; 8: > 100 nM

* * *

Assignment: determine reported pIC50 for the given molecules.
assayed target: human CXCR3 (N-delta 4) (Homo sapiens, UniProt P49682)
Construct: CD8 leader (N); Flag tag; expressed in transfected cells; membrane preparation
Sequence (P49682 5-368 limits assumed): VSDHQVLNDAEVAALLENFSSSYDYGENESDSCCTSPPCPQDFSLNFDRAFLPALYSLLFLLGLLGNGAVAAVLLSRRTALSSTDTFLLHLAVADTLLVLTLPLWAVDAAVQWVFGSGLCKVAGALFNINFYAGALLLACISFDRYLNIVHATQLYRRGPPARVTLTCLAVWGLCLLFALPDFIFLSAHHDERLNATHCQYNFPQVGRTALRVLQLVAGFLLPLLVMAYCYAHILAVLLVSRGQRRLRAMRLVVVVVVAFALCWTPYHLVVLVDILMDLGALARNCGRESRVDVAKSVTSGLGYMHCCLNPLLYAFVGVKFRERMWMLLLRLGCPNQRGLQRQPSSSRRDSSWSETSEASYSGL
experiment notes: Human CXCR3 (N-delta 4) scintillation proximity assay (SPA), [125I] IP-10 binding to Ba/F3-hCXCR3 membranes
condition parameters: IC50 rating; [125I] IP-10 displacement, human CXCR3; read-out: IC50
Source text: The inventive compounds can readily be evaluated to determine activity at the CXCR3 receptors by known methods, such as, for example, development of a human CXCR3 (N-delta 4) Binding Assay. The DNA encoding human CXCR3 was cloned by PCR using human genomic DNA (Promega, Madison, Wis.) as a template. The PCR primers were designed based on the published sequence of human orphan receptor GPR9 (1) with incorporated restriction sites, a Kozak consensus sequence, CD8 leader and Flag tag. […]
pIC50: −log10 of the molar value.

Worked cases, answers included:
molecule="C[C@@H]1CN(c2ncc(Nc3c(NCC(F)(F)F)c(=O)c3=O)cc2Cl)[C@@H](C)CN1C1CCN(Cc2ccc(Oc3ccccc3)cc2)CC1 [Compound 161]" value="< 7.00"
molecule="C[C@@H]1CN(c2ncc(Nc3c(NCC(F)(F)F)c(=O)c3=O)cc2Cl)[C@@H](C)CN1C1CCN(CCC(C)(C)C)CC1 [Compound 150]" value="< 7.00"
molecule="CC[C@H]1CN(c2ncc(NS(=O)(=O)C(C)C)cc2Cl)CCN1C1CCN(Cc2ccc(Cl)cc2F)CC1 [Compound 29]" value="7.00 to 7.60"
molecule="CC[C@H]1CN(c2ncc(NC3=NS(=O)(=O)N=C3Nc3ccccc3O)cc2Cl)CCN1C1CCN(Cc2ccc(Cl)cc2F)CC1 [Compound 277]" value="< 7.00"
molecule="CC[C@H]1CN(c2ncc(NS(C)(=O)=O)cc2Cl)CCN1C1CCN(Cc2ccc(Cl)cc2-c2nnn[nH]2)CC1 [Compound 36]" value="7.00 to 7.60"
molecule="CC(C)C1CCC(N2CCC(N3C[C@H](C)N(c4ncc(Nc5c(NCC(F)(F)F)c(=O)c5=O)cc4Cl)C[C@H]3C)CC2)CC1 (stereo partly shown) [Compound 169]" value="< 7.00"

Here is another molecule to look at.
Checklist item: pIC50 tested on human CXCR3 (N-delta 4) (Homo sapiens, UniProt P49682), entry CC[C@H]1CN(c2ncc(NS(C)(=O)=O)cc2Cl)CCN1C1CCN(Cc2ccsc2)CC1 [Compound 60] , value?
< 7.00

* * *

assayed target: human CXCR3 (N-delta 4) (Homo sapiens)
Construct: CD8 leader (N); Flag tag; expressed in transfected cells; membrane preparation
experiment notes: Human CXCR3 (N-delta 4) scintillation proximity assay (SPA), [125I] IP-10 binding to Ba/F3-hCXCR3 membranes
condition parameters: IC50 rating; [125I] IP-10 displacement, human CXCR3; read-out: IC50
Source text: The inventive compounds can readily be evaluated to determine activity at the CXCR3 receptors by known methods, such as, for example, development of a human CXCR3 (N-delta 4) Binding Assay. The DNA encoding human CXCR3 was cloned by PCR using human genomic DNA (Promega, Madison, Wis.) as a template. The PCR primers were designed based on the published sequence of human orphan receptor GPR9 (1) with incorporated restriction sites, a Kozak consensus sequence, CD8 leader and Flag tag. […]
pIC50: −log10 of the molar value.
Assignment: determine reported pIC50 for the given compounds.

Worked cases, answers included:
compound=CC[C@H]1CN(c2ncc(Nc3c(NC4CC4)c(=O)c3=O)cc2Cl)CCN1C1CCN(Cc2ccc(OC(F)(F)F)cc2)CC1 assayed_target="human CXCR3 (N-delta 4) (Homo sapiens)" value="> 7.60"
compound=CC[C@H]1CN(c2ncc(NS(C)(=O)=O)cc2Cl)CCN1C1CCN([C@H](CO)c2ccc(Cl)cc2)CC1 assayed_target="human CXCR3 (N-delta 4) (Homo sapiens)" value="> 7.60"
compound=CC[C@H]1CN(c2ccc([N+](=O)[O-])cc2Cl)CCN1C1CCN(Cc2ccc(Cl)cc2)CC1 assayed_target="human CXCR3 (N-delta 4) (Homo sapiens)" value="< 7.00"
compound=CC[C@H]1CN(c2ncc(Nc3c(NC4CC4)c(=O)c3=O)cc2Cl)CCN1C1CCN([C@@H](C(N)=O)c2ccc(Cl)cc2)CC1 assayed_target="human CXCR3 (N-delta 4) (Homo sapiens)" value="< 7.00"
compound="COC1CCCC(CN2CCC(N3C[C@H](C)N(c4ncc(Nc5c(NCC(F)(F)F)c(=O)c5=O)cc4Cl)C[C@H]3C)CC2)O1 (some centres unmarked)" assayed_target="human CXCR3 (N-delta 4) (Homo sapiens)" value="< 7.00"

Hi! Can you tell me pIC50 for each of these compounds?
1. CC[C@H]1CN(c2ncc(NC3=NS(=O)(=O)N=C3NC3CC3)cc2Cl)CCN1C1CCN(Cc2ccc(Cl)c(F)c2)CC1
2. CC[C@H]1CN(c2ncc(NS(C)(=O)=O)cc2Cl)CCN1C1CCN(Cc2ccc(OC(F)F)cc2)CC1
3. CC[C@H]1CN(c2ncc(NC3=NS(=O)(=O)N=C3NC3CC3)cc2Cl)CCN1C1CCN(Cc2ccc(C#N)cc2)CC1
4. CC[C@H]1CN(c2ncc(NS(=O)(=O)c3ccc(Cl)cc3)cc2Cl)CCN1C1CCN(Cc2ccc(Cl)cc2F)CC1
5. CC[C@H]1CN(c2ncc(N/C(=N/C#N)NC)cc2Cl)CCN1C1CCN(Cc2ccc(Cl)cc2F)CC1
6. CC[C@H]1CN(c2ncc(N)cc2Cl)CCN1C1CCN(Cc2ccc(Cl)cc2)CC1
7. CC[C@H]1CN(c2ncc(NC3=NS(=O)(=O)N=C3NC3CC3)cc2Cl)CCN1C1CCN(Cc2ccc(Cl)cc2-c2nnc(Br)[nH]2)CC1
8. CCC(=O)Nc1cnc(N2CCN(C3CCN(Cc4ccc(Cl)cc4)CC3)[C@@H](C)C2)c(Cl)c1

1. > 7.60
2. > 7.60
3. > 7.60
4. < 7.00
5. 7.00 to 7.60
6. > 7.60
7. < 7.00
8. 7.00 to 7.60

Would you kindly share the measured pIC50 for CC[C@H]1CN(c2ncc(NS(C)(=O)=O)cc2Cl)CCN1C1CCN(Cc2ccc(Cl)s2)CC1 ?
7.00 to 7.60

Hello, the source for this data is patent US7566718B2, in case you need it.
